# assay remarks: chemical genetic growth profiling, strain panel (AID 1159580);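 further: tested at 20 µM; growth read once vehicle control cultures reached saturation at 30 °C; 1 = growth at the plate median or of vehicle wells; lower values mean less growth of the strain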
# conditions: S. cerevisiae deletion strains, growth OD, locus YOL136C, strain PFK27, hits give low values
In all, about 5,500 compounds went through this assay and about 2,000 (36%) were called active. About 18% were inconclusive and are not listed. Some of the results follow.
For each record, write down the corresponding normalized growth.

Dear colleague, I am looking for the recorded normalized growth of the following molecule: N#Cc1ccc(Oc2sccc2[N+](=O)[O-])cc1
0.901 (inactive)

Same lookup for COc1ccc2c(c1)CCc1sc(NC(=O)c3ccco3)nc1-2 , please.
0.882 (inactive)

# repeat for O=C(Oc1ccc2ccccc2c1C1SCCS1)c1ccc([N+](=O)[O-])o1
0.886 (inactive)
